# assay.protocol: inhibitors of mutant huntingtin aggregation, primary screen, imaging, exon1htt(103Q)mCFP cells, high-content imaging (AID 483);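 note: compound exposure lasted 3 days before fixation; percent of the per-plate median nuclei count of sample wells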
# assay.setup: exon1htt(103Q)mCFP cell line, aggregate imaging, at 2 µM; measured here: cell count, toxicity
endpoint.label: nuclei count (%)
Lab book: enter the figure in %, no units written.

Worked cases, answers included:
O=C1OC(c2ccc(O)cc2)(c2ccc(O)cc2)c2ccccc21 ... 77.9
COc1ccc(C(=O)NCCCCCC(=O)O)cc1OC ... 93
CCOC(=O)C1=C(CSc2nc(C)cc(C)c2C#N)OC(N)=C(C#N)C1c1cccs1 (stereo unspecified) ... 102
C=CCn1c(=S)[nH]c2nc3c(cc2c1=O)COC(C)(C)C3 ... 109
COc1cccc(OC)c1OCCN1CCN(C(=O)c2ccco2)CC1 ... 104
Cc1nc2sccn2c(=O)c1CCN1CCC(=C(c2ccccc2)c2ccc(F)cc2)CC1 ... 114
COc1cccc(OC)c1C(=O)N1CCN(S(=O)(=O)c2ccc(C)cc2)CC1 ... 104
CCCCC[C@H](O)/C=C/[C@H]1C=CC(=O)[C@@H]1C/C=C\CCCC(=O)O ... 84.8

Lab note: Cc1ccc(SCc2[nH]nc3c2C(c2ccc(C)o2)C(C#N)=C(N)O3)cc1 (stereo unspecified) gave nuclei count of 62.4

Per the records, this compound ( `CCCCn1cnc2c(c1=O)c1nc3ccccc3nc1n2Cc1ccc2c(c1)OCO2` ) has nuclei count equal to 101

According to the records, this compound CN1CCCN(C(c2ccccc2)c2ccc(Cl)cc2)CC1 (stereo unspecified) displays nuclei count of 103

====

# assay.protocol: PubChem AID 1714;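 note: raw slope of fluorescence over initial fluorescence between 10 and 20 s after thallium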
# assay.setup: HEK293-KCC2 + bumetanide/ouabain, thallium flux FluoZin2; at 10 µM
The other results are listed elsewhere or left out. Results filed as inconclusive are left out. Calls of active or inactive are those of the source.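 The calls were made as follows: active = thallium entry rate above the same plate's blocked-transporter control wells by more than 3 SD; inconclusive = the two repeat wells disagree; inactive = the rest.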
Permitted responses: true for active, false for inactive

Cc1nnc(SC(C(=O)Nc2cc(Cl)cc(Cl)c2)c2ccccc2)[nH]c1=O (centres undefined) ... false
COc1ccc(NC(=O)N2CCC(Cc3ccccc3)CC2)cc1 ... false
c1cncc(-c2nnc3n2C2(CCCCC2)Cc2ccccc2-3)c1 ... false
Cc1cccc(NS(=O)(=O)c2ccc(C)c(C(N)=O)c2)c1 ... false
Cc1c(NC(=O)CSc2cccc3cccnc23)c(=O)n(-c2ccccc2)n1C ... true

Can you look up the reported call for `CNC(=O)/C(=C\C=C\c1ccccc1)NC(=O)c1ccc([N+](=O)[O-])cc1` for me? false

Dear colleague, could you share the recorded outcome for `CCOC(=O)CSc1nnc(CNC(=O)c2cccs2)n1-c1ccccc1` when you have a moment? false

State the result this test recorded for `Cc1ccccc1NC(=S)NNC(=O)c1cccc(Br)c1` . true

Short answer needed: outcome of this test for `CC(=O)NNC(=O)c1csc(Cc2c(Cl)sc3ccc(Cl)cc23)n1` ? true

Check the results log: what was the call for `Cc1ccc(OCC(=O)NNC(=S)NCc2ccccc2)cc1` ? true

====

# target.under.test: Alpha-2C adrenergic receptor (Homo sapiens)
# assay.protocol: modulators of alpha2C/GIRK thallium flux, primary screen, cell-based, HEK293 alpha2C/GIRK1/2 (AID 624);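 note: slope of fluorescence ratio to pre-addition baseline per second over 15 to 24 s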
# assay.setup: thallium flux BTC fluorescence, at 10 µM, actives lie on both sides
Threshold 0.005: slope strictly smaller gives yes (1), otherwise no (0).

CCOC(=O)c1[nH]c2ccc(OC)cc2c1NC(=O)CCN1CCN(Cc2ccccc2)CC1 ... yes (1)
NS(=O)(=O)c1cc2c(cc1Cl)NC(C(Cl)Cl)NS2(=O)=O (stereo not drawn) ... yes (1)
COc1ccc(N2CCN(C3CC(=O)NC3=O)CC2)cc1 (stereo not drawn) ... yes (1)
CCN(CC)C(=O)CSC1=C(C#N)C(c2ccco2)C(C(=O)OCCOC)=C(C)N1 (stereo not drawn) ... yes (1)
COc1ccc(C=NCCC2(O)CC(C)N(C)CC2C)cc1 (stereo not drawn) ... no (0)
CN1CCN(CCCCC(=O)c2ccccc2)CC1 ... no (0)
CCCc1[nH]nc2c1C(c1c(C)nn(-c3ccccc3)c1Cl)C(C#N)=C(N)O2 (stereo not drawn) ... no (0)
COc1ccc2nc(S(=O)Cc3ncc(C)c(OC)c3C)[nH]c2c1 (stereo not drawn) ... yes (1)
CCN(CC)CCOC(=O)C(c1ccccc1)c1ccccc1 ... yes (1)
CCCCC(=O)O[C@H]1CC[C@H]2[C@@H]3CCc4cc(O)ccc4[C@H]3CC[C@]12C ... no (0)

For this molecule, is slope lower than 0.005? `CCN1CCN(c2nc3c(C)cccn3c(=O)c2/C=C(\C#N)S(=O)(=O)c2ccccc2)CC1` yes (1)

Just wondering, is slope of `Clc1ccccc1CN1CCc2sccc2C1` below 0.005? yes (1)

slope strictly < 0.005 for this molecule? `C[C@]12CCC(=O)C=C1CC[C@@H]1[C@@H]2CC[C@@]2(C)[C@H]1CC[C@]2(O)C(=O)CO` yes (1)

API: query returns whether the molecule falls strictly under 0.005 in slope. Query: CC(C)(C)NCC(O)COc1cccc2c1C[C@H](O)[C@H](O)C2 (stereo partly drawn) yes (1)

Answer whether the molecule `Cc1ccc(OCc2nnc(NC(=O)c3ccco3)s2)c(C)c1` has slope strictly less than 0.005 no (0)

# check: slope < 0.005 for `O=S(=O)(O)c1nc2ccccc2n1Cc1ccc(Cl)cc1Cl` no (0)

Just wondering, is slope of COCc1[nH]nc2c1C(c1ccccc1OC)C(C#N)=C(N)O2 (stereo not drawn) below 0.005? no (0)

Could you please tell me whether slope recorded for `COc1ccccc1N(Cc1cc2cccc(C)c2[nH]c1=O)C(=O)C(C)C` is less than 0.005? no (0)

Item `Nc1ccc(S(=O)(=O)c2ccc(N)cc2)cc1` : slope beneath 0.005, strictly? no (0)

====

# assay.protocol: inhibitors of E-selectin induction by TNFa, primary screen, imaging, HUVEC, immunofluorescence, MLSMR starter and 10KST1 sets (AID 487);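 note: signal is fraction of cell area covered by stained E-selectin grains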
# assay.setup: HUVEC TNFalpha-induced E-selectin immunofluorescence imaging, at 2 µM; stronger effect = higher value
Values of inhibition greater than or equal to -90% map to label 1; values below map to label 0.

Solved entries:
COc1cccc(-c2nc(NC(C)(C)C)c3ccccc3n2)c1O ... label 1
COc1cc(C2NC(=O)NC(C)=C2C(=O)Nc2cccc(C)c2C)cc(OC)c1OC (configuration not stated) ... label 1
Oc1ccc(C=Nc2ccc3ncccc3c2)c(O)c1 ... label 0
CCOc1ccc(Cc2nc(N)nc(N)n2)cc1 ... label 0
CCOc1nc(-c2ccncc2)nc2ccccc12 ... label 1

Could you please find out whether `CCOCc1nc(N)[nH]c(=O)c1Cc1ccc(OC(C)C)cc1` has inhibition that meets -90% or exceeds it? label 0

Does inhibition meet or surpass -90% for `COCc1cc(C)nc(N)c1C#N` ? label 1

Hello, I need to know if CCOC(=O)CSC1=C(C#N)C(c2ccc(OC)cc2)C2=C(CC(C)(C)CC2=O)N1 (configuration not stated) has measured inhibition not below -90%. Thanks! label 0

Form field: inhibition at least -90%? Entry: `CCOc1ccc(-c2nnc3sc(-c4ccccc4OC)nn23)cc1` label 1

Answer whether inhibition of `CCOC(=O)c1c(C)[nH]sc1=S` is greater than or equal to -90%. label 1

Could you please find out whether `Clc1ccc2[nH]c3c(NCCCN4CCOCC4)ncnc3c2c1` has inhibition that meets -90% or exceeds it? label 1

====

# assay.protocol: inhibitors of mutant huntingtin aggregation, primary screen, imaging, exon1htt(103Q)mCFP cells, high-content imaging (AID 483);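 note: compound exposure lasted 3 days before fixation; percent of the per-plate median nuclei count of sample wells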
# assay.setup: exon1htt(103Q)mCFP cell line, aggregate imaging, at 2 µM; measured here: cell count, toxicity
nuclei count reference
Quick reminder: number only, in %, skip the unit.

Below are worked cases with known answers.
C=CCSc1nnc2n(CCc3ccccc3)c(=O)c3c4c(sc3n12)COC(C)(C)C4 ... 115
CC[N+](C)(CC)CCOC(=O)C(O)(c1ccccc1)C1CCCCC1 (stereo unspecified) ... 95.4
CN1C2C=C3C(C#N)=C(N)C(C#N)(C#N)[C@@H](c4ccc(Cl)cc4)[C@@H]3C1CC2 (stereo partly specified) ... 110

Field nuclei count (entry `Cc1c(C=NCCOCc2ccccc2)cnn1C` ) reads 102

Consider `Cc1c(Cl)cccc1Nc1ccccc1C(=O)O` . Its measured nuclei count is 108

Entry under test: COc1ccccc1C1(CC(=O)N2CCOCC2)CCOC(C(C)C)C1 (stereo unspecified) . Its nuclei count was 102

Measured nuclei count of `OC[C@H]1O[C@@H](n2cnc3c(Nc4ccccc4)ncnc32)[C@H](O)[C@@H]1O` : 104

Sample `CCN(CC)CCOC(=O)C(c1ccccc1)c1ccccc1` ; nuclei count observed: 104

Record `c1cncc(-c2nnc3sc(-c4ccco4)nn23)c1` . Reported nuclei count: 94.2

Query CCCCCCCCCCCCCCCC(O)C(N)CO (stereo unspecified) yields nuclei count of 104

Consider `Cc1ccc(-n2ncc3c(N4CCN(c5ccccc5)CC4)ncnc32)c(C)c1` . Its measured nuclei count is 113
